Entry source: ChEMBL document CHEMBL1255546

pIC50: −log10 of the molar value.
Consider the following pIC50 values measured on Cytochrome P450 2D6 (Homo sapiens, UniProt P10635).
Sequence (P10635 whole entry): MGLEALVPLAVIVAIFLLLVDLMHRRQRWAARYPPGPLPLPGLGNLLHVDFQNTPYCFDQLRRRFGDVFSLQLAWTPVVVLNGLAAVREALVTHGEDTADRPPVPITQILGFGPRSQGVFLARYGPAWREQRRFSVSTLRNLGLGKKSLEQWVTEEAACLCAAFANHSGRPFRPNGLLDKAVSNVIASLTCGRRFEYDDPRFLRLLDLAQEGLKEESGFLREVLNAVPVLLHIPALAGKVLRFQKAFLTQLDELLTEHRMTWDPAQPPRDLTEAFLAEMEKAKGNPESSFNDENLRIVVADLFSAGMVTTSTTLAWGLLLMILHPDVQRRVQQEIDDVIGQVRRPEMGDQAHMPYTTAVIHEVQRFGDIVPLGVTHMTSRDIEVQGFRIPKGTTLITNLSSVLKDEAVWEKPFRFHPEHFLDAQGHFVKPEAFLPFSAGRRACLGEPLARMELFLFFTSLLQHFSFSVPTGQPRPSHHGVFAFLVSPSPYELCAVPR
value.type: pIC50

* CC(C)N1CCC(Oc2ccc3c(c2)cc2n3CCN(C)C2=O)CC1 | 4.82
* CC(C)N1CCC(Oc2ccc3c(c2)cc2n3[C@H](C)CNC2=O)CC1 | 4.66
* CC(C)N1CCC(Oc2ccc3c(c2)cc2n3CCN(Cc3ccc(F)cc3)C2=O)CC1 | 4.46
* CC(C)N1CCC(Oc2ccc3c(c2)cc(C(=O)N2CCC(F)(F)CC2)n3C(C)C)CC1 | 5.30

* * *

Measured Ki (Histamine H3 receptor (Homo sapiens, UniProt Q9Y5N1))
value.type: Ki (µM)

* CC(C)N1CCC(Oc2ccc3c(c2)cc2n3CCN(Cc3ccccn3)C2=O)CC1 | 0.006
* CC(C)N1CCC(Oc2ccc3c(c2)cc2n3[C@@H](C)CNC2=O)CC1 | 0.042
* CC(C)N1CCC(Oc2ccc3c(c2)cc(C(=O)N2CCC(F)(F)CC2)n3C(C)C)CC1 | 0.002
* CC(C)N1CCC(Oc2ccc3c(c2)cc2n3CCCNC2=O)CC1 | 0.017
* COCCN1CCn2c(cc3cc(OC4CCN(C(C)C)CC4)ccc32)C1=O | 0.019
* CC(C)N1CCC(Oc2ccc3c(c2)cc2n3CCN(C)C2=O)CC1 | 0.031
* C[C@H]1CCCN1CCCOc1ccc2c(c1)cc1n2CCNC1=O | 0.021
* CC(C)N1CCC(Oc2ccc3c(c2)cc2n3CCN(CCO)C2=O)CC1 | 0.046
* CC(C)N1CCC(Oc2cc3cc4n(c3cc2Br)[C@@H](C)CNC4=O)CC1 | 0.004
* CC(C)N1CCC(Oc2ccc3c(c2)cc2n3[C@H](C)CNC2=O)CC1 | 0.026
* CC(C)N1CCC(Oc2ccc3c(c2)cc2n3CCN(CC3CC3)C2=O)CC1 | 0.009
* O=C1NCCn2c1cc1cc(OCCCN3CCCCC3)ccc12 | 0.018
* CC(C)N1CCC(Oc2cc3cc4n(c3cc2Br)[C@@H](C)CN(CC2CC2)C4=O)CC1 | 0.002
